# Test system: SF-295 CNS
# ASSAY NOTES: NCI-60 one-dose screen, 48 h (100 = growth as untreated, 0 = no growth, -100 = all killed)
# EXPERIMENTAL CONDITIONS: 10 µM unless noted
About 83,000 compounds went through this panel and 20% of them were active in at least one assay; those are over-represented in the sample as a whole.
// returns -1 unless growth is strictly below 40%, in which case 1

# count of solved cases: 9
1. CCOC(=O)C1C(=O)C=C(c2cnccn2)CC1c1ccc(OC)c(OC)c1 (stereo not given) = -1
2. N#Cc1c(N)nc2c(nnn2-c2cccc(Br)c2)c1N = -1
3. Cc1cc(N2CCCCC2)nc(N(CCNc2ccnc3cc(Cl)ccc23)Cc2ccccn2)n1 = 1
4. COc1ccc(/C=C(\C#N)n2nnc3cc(F)c(F)cc32)c(OC)c1OC = -1
5. O=C1CC(c2ccc3c(c2)OCO3)Nc2cc3c(cc21)OCO3 (stereo not given) = 1
6. Clc1ccc(-c2nnc(Cn3ccnc3)o2)cc1 = -1
7. CN(C)CCC(O)(Cc1ccccc1)c1ccccc1 (stereo not given) = -1
8. Cc1cc(-c2ccccc2)cc(SC#N)[n+]1[O-] = 1
9. CN1C[C@@H](c2ccc(Cl)cc2)[C@]2(NC(=S)N(c3ccc(F)c(Cl)c3)C2=O)[C@@]12C(=O)NC1C=CC(Cl)=C[C@H]12 (stereo not given in full) = -1

Would you kindly look at the next entry?
**Query** Determine whether this molecule shows growth lower than 40% (ties excluded): CN(C)c1ccc(-c2cc(-c3ccc(Nc4nc(Nc5ccccc5)nc(Nc5ccc(Cl)cc5)n4)cc3)nc(N)n2)cc1
**Result** 1
